# tested_system: HIV RT (HIV, UniProt P04585;P04585 588-1147;588-1027)
# protocol_text: filter binding; no Mg2+; Primer extension: 50 mM Tris-HCl pH 8.0, 80 mM KCl, 6 mM MgCl2, 1 mM DTT, 0.1 mg/ml BSA, room temperature, 1 nM duplex; filter binding: Tris-HCl pH 8.0, 80 mM KCl, 1 mM DTT, without Mg2+ (wt) or 6 mM Mg2+ (E478Q), room temperature, 5 nM hybrid (Table 1 units nM inferred)
# particulars: protein: commercial; copies: 1;1; label: 5'-32P primer; 5' overhang 4 nt (template); printed U opposite A
reported_endpoint: Kd (nM)
Dear colleague, please return just the value in nM, with no unit written.

Req: Which Kd reading was recorded for the binder Ty3+3 RNA PPT (DNA:RNA, strand 1 RNA, strand 2 DNA) RNA: CCUGAGCGCGCGGCC DNA: CAGCGGCCGCGCGCTCAGG ?
Resp: 900
